The entries below are paired with their reported GI50.
Test system: OVCAR-8
Assay: NCI tumour cell line growth inhibition, 48 h
Calls of active or inactive are those of the source. Cut-off read from the data, not from the text of the source: active = GI50 up to about 1.1 µM and inactive = higher.

# compound, GI50
rows = [
    ("Cn1c(=O)n2n(c1=O)C([S+]([O-])c1ccccc1)C2 (stereo not drawn)", "> 100 µM (inactive)"),
    ("O=C(O)c1ccccc1C1c2ccccc2Oc2ccccc21", "96.6 µM (inactive)"),
    ("COc1ccc(C(O)c2cc(OC)c(OC)c(OC)c2)cc1 (stereo not drawn)", "30.3 µM (inactive)"),
    ("COc1cc(S(=O)(=O)Nc2ccc(-c3csc(N4C(=O)C(C)SC4c4ccccc4O)n3)cc2)ccc1Cl (stereo not drawn)", "40.9 µM (inactive)"),
    ("CCOC(=O)NC(=O)c1cn(CCCCCCCCCCC(=O)NCCCN2CCN(CCCNC(=O)CCCCCCCCCCn3cc(C(=O)NC(=O)OCC)c(=O)[nH]c3=O)CC2)c(=O)[nH]c1=O", "> 100 µM (inactive)"),
]

-- ask I have this compound here, O=c1[nH]c(=O)n(C2CC(O)C(CO)O2)c2nc3ccc4cc5ccccc5cc4c3nc12 (stereo not drawn) , and I need its recorded GI50.
-- reply > 100 µM (inactive)

-- ask I have this compound here, CC1(N2CCOCC2)CC2C(=[N+]1[O-])CCC/C2=N/O (stereo not drawn) , and I need its recorded GI50.
-- reply > 100 µM (inactive)

-- ask I have this compound here, CC(C(=O)O)C(C)(O)C(=O)O (stereo not drawn) , and I need its recorded GI50.
-- reply > 100 µM (inactive)
